Test system: ACHN renal
Experiment: NCI-60 one-dose screen, 48 h (100 = growth as untreated, 0 = no growth, -100 = all killed)
Conditions: 10 µM unless noted
This is part of a sample that, as a whole, favours compounds with a hit. Of some 83,000 tested, about 20% had one in any assay.
Label rule, in plain words: growth of 90% and up is criterion met, under 90% is criterion not met.

Reference set (8 entries):
CC(O)CN(CCO)CCN(CCO)CC(C)O (configuration not stated): criterion met
CCOc1ccc2nc3ccc(Cl)cc3nc2c1: criterion met
Oc1ccc(N=Nc2ccc(N=Nc3ccccc3)cc2)cc1: criterion not met
CCCCCCCCC/C(=N\NC(=O)c1ccncc1)c1ccc(O)c(O)c1O: criterion not met
CCCCCCCCCCCCCCCCCCOP(=O)(O)O: criterion met
CCC(C)(C)c1ccc(OCCCCCCN2CCNCC2)cc1: criterion not met
Cc1ccc(S(=O)(=O)N/N=C2\CC3CCC2C3)cc1 (configuration not stated): criterion met
COc1ccc2c(c1)/C(=C1/S/C(=N/c3nnc(C)s3)NC1=O)C(=O)N2Cc1ccc(Br)cc1: criterion not met

Req: Does the reported growth for O=C(/C=C/c1cccc(O)c1)c1cccc(-n2cc(-c3ccc(Cl)cc3)[nH]c2=O)c1 fall at or above the 90% mark?
Resp: criterion not met

Req: Reported growth at or above 90%? O=S(=O)(O)CCI
Resp: criterion met
